Where these numbers come from: PubChem BioAssay AID1159580

test: chemical genetic growth profiling, strain panel (AID 1159580);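 also: tested at 20 µM; growth read once vehicle control cultures reached saturation at 30 °C; 1 = growth at the plate median or of vehicle wells; lower values mean less growth of the strain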; conditions: S. cerevisiae deletion strains, growth OD, locus YBR136W, strain MEC1
In all, about 5,500 compounds went through this assay and about 2,000 (36%) were called active. Inconclusive results (about 18%) are left out. Rule as the data show it: active = normalized growth mostly below about 0.91 (no sharp cut-off); inconclusive = no clear call, values can overlap the other calls; inactive = mostly above about 0.92. The list shows a part of the results.
Answer with one of the outcomes given here: yes (1) = active, no (0) = inactive

Q: Outcome? O=C1c2cccc3c(Sc4ccccc4)ccc(c23)C(=O)N1NCCO
Ans: no (0)

Q: Outcome? O=C(Nc1cccc(Cl)c1)O/N=C1\CCCc2occc21
Ans: no (0)

Q: Outcome? Cc1c(C)c(C)c(C(=O)c2ccc(N=Cc3cc(Cl)cc(Cl)c3O)cc2)c(C)c1C
Ans: no (0)

Q: Outcome? CCOC(=O)c1ccc(Cl)c(N=Cc2cc(Cl)cc(Cl)c2O)c1
Ans: no (0)

Q: Outcome? CC(=O)c1ccc(Cl)c(N=Cc2cc(Br)cc(Br)c2O)c1
Ans: yes (1)

Q: Outcome? CCOC(=O)/C(C#N)=C(\Nc1ccc(C(=O)OCC)cc1)SC
Ans: no (0)
